# Tested on: MDA-MB-468 breast
# experiment-description: NCI tumour cell line growth inhibition, 48 h
property-label: TGI

>  <compound>
C#Cc1cccc(Nc2ncnc3ccc(-c4cncc(NS(C)(=O)=O)c4)cc23)c1

>  <result>
0.731 µM

$$$$
>  <compound>
COc1cc(OC)cc(N2CCN(C(=O)Nc3nc4cc(F)ccc4nc3OC)CC2)c1

>  <result>
65.1 µM

$$$$
>  <compound>
COC(=O)Nc1nc2ccc(Sc3ccc(NC(=O)Nc4cc(C(F)(F)F)ccc4F)cc3)cc2[nH]1

>  <result>
4.75 µM

$$$$
>  <compound>
COc1cc(C(=O)N/N=C/c2cccc([N+](=O)[O-])c2)cc(OC)c1OC

>  <result>
14 µM

$$$$
>  <compound>
CCCCCCN(CCCCCC)CC(O)c1cccc2ccc(Cl)cc12 (configuration not stated)

>  <result>
14.6 µM

$$$$

Exercise: Reported TGI, compound COc1ncnc2c(-c3ccco3)cn(COCc3ccccc3)c12 : ____
Key: > 50 µM

Exercise: Name the reported TGI value associated with the compound Cc1csc(Nc2nc(-c3cccc(Cl)c3)nc(C(Cl)(Cl)Cl)n2)n1
Key: 2.18 µM

----------
# System: MDA-MB-468 breast
# experiment-description: NCI tumour cell line growth inhibition, 48 h; in the data active = GI50 below about 0.43 µM; inactive = the rest
Respond only with the outcome that fits, drawn from active, inactive

Use these answered entries as a reference point.
>  <structure-as-smiles>
COc1cc(OC)cc(N2CCN(C(=O)Nc3nc4cc(F)ccc4nc3OC)CC2)c1

>  <class-assignment>
active

$$$$
>  <structure-as-smiles>
CC(=O)N[C@@H]1CCC[C@H](C(=O)Nc2cc(-c3cnn4c3CC(C)(C)C4)c(Cl)cn2)C1

>  <class-assignment>
active

$$$$
>  <structure-as-smiles>
COC(=O)Nc1nc2ccc(Sc3ccc(NC(=O)Nc4cc(C(F)(F)F)ccc4F)cc3)cc2[nH]1

>  <class-assignment>
inactive

$$$$
>  <structure-as-smiles>
CCCCCCCCCCCCCCCCCC1=NC(C)(C)CN1CCO

>  <class-assignment>
inactive

$$$$
>  <structure-as-smiles>
CN(C)c1ccc(Sc2ccc3nc(N)nc(N)c3c2)cc1

>  <class-assignment>
inactive

$$$$

Let us examine a further case.
Exercise: Kindly provide the recorded test outcome for the following compound: COc1cc(/C=C\c2cccnc2Nc2ccccc2)cc(OC)c1OC
Key: inactive
